Recorded values, source ChEMBL document CHEMBL4689842.

system: HEK-293T; test: Multiplex assay against HEK293T; assay type: toxicity, cell-based; details: human, 12 h, 1 µM, compound concentration 1 uM, replicate 1
Recorded Metric: Population Mitotic Cells (%)
Enter your answer as a number in %; do not include the unit.

Solved entries:
Cc1nc(Nc2n[nH]c3c2CN(C(=O)N[C@H](CN(C)C)c2ccccc2)C3(C)C)c2sccc2n1 [PF-03758309]    77
Cc1nc(-c2ccc(-c3ccc(C(=O)N4CCc5cc6c(cc54)C4(CCN(C)CC4)CO6)cc3)c(C)c2)no1 [SB-224289]    40
OC1(c2ccc(Cl)cc2)CCN(Cc2c[nH]c3ccccc23)CC1    48
CN(C)C(=O)/C(C#N)=C/c1ccc(-c2nc3cnc4[nH]ccc4c3n2C2CCCCC2)o1    51

Item: COc1cc(-n2cnc3cc(-c4ccc(Cl)cc4)sc3c2=O)ccc1OCCN1CCCC1 Test system: HEK-293T Read-out: Population Mitotic Cells (%) Value: ?
40

Also check CC(C)C(=O)Nc1n[nH]c2cc(-c3cccc(NS(=O)(=O)C4CC4)c3)ccc12
78

Same lookup for Cn1cc(-c2[nH]c3cc(NC(=O)[C@H](N)C4CCCCC4)cc4c3c2C=NNC4=O)cn1 , please.
60

Param item: CN1CCN(c2ccc(OC(F)(F)F)c(Nc3ncc4c(n3)-c3c(c(C(N)=O)nn3CCO)CC4)c2)CC1 [ONVANSERTIB]
31

One more compound: CNc1nc(NCc2ccc(NS(C)(=O)=O)cc2Cl)cc(-c2ccccn2)n1
48
